Assay: in vivo
Settings: rat, in vivo, ip, 58.8 mg/kg
value-kind: concentration at 0.5 h

# concentration at 0.5 h of CC(C)Cc1ccc(C(C)C(=O)O)cc1 (stereo not shown) = 215 µg/mL

----------
Experiment: in vivo
Conditions: rat, in vivo, po, 58.8 mg/kg
value-kind: concentration at 7 h (ng/mL)
Answer in ng/mL, number only, no unit symbol.

# concentration at 7 h of CC(C)Cc1ccc(C(C)C(=O)O)cc1 (stereo not shown) = 9100

----------
Assay: in vivo
Details: rat, in vivo, ip, 58.8 mg/kg
value-kind: concentration at 7 h (ng/mL)
Answer in ng/mL, number only, no unit symbol.

# concentration at 7 h of CC(C)Cc1ccc(C(C)C(=O)O)cc1 (stereo not shown) = 6200

Measured values drawn from patent US4379091A for this set.
